These measurements were taken from ChEMBL document CHEMBL1134597.

# target.under.test: UniProt:P47871
# Sequence (P47871 whole entry): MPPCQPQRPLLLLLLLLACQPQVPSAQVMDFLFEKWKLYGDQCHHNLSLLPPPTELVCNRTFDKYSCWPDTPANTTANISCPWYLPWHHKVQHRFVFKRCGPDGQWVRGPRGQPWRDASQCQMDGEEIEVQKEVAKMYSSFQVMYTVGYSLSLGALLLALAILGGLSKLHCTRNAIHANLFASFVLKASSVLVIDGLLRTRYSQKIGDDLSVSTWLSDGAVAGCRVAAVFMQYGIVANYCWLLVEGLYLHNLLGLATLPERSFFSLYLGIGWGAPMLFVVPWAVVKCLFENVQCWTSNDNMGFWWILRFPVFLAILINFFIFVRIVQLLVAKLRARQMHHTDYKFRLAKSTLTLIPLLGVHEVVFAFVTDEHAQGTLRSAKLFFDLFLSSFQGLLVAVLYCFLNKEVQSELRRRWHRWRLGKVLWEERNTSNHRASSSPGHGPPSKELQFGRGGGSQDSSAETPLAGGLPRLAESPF
# method: Binding affinity for human Glucagon Receptor
observed.property: log10 IC50 (log10 of the value in µM)
Friendly reminder: values = log10 of IC50, unit µM.

smiles.text: COc1cc(C(=O)N/N=C/c2cccc(Oc3cccc(C(F)(F)F)c3)c2)ccc1O
measured.result: 0.69
//
smiles.text: O=C(N/N=C/c1ccc(O)c2ccccc12)c1ccc(O)c(F)c1
measured.result: -0.41
//
smiles.text: COc1cc(C(=O)N/N=C/c2ccc(O)c3ccccc23)ccc1O
measured.result: -0.14
//
smiles.text: O=C(N/N=C/c1ccc(O)c2ccccc12)c1cc(Cl)c(O)c(Cl)c1
measured.result: 1.53
//
smiles.text: COc1cc(C(=O)N/N=C/c2ccnc3ccccc23)ccc1O
measured.result: 1.00

Looking up COc1cc(C(=O)N/N=C/c2cccc3ccccc23)ccc1O , I see its log10 IC50 listed as 0.68

Looking up COc1ccc(/C=N/NC(=O)c2ccc(O)cc2)c2ccccc12 , I see its log10 IC50 listed as 0.69

Looking up O=C(N/N=C/c1ccc(O)c2ccccc12)c1ccc(O)cc1O , I see its log10 IC50 listed as 1.45
